Record: IC50 reported on Beta-secretase 1 (Homo sapiens).
Sequence (P56817 whole entry): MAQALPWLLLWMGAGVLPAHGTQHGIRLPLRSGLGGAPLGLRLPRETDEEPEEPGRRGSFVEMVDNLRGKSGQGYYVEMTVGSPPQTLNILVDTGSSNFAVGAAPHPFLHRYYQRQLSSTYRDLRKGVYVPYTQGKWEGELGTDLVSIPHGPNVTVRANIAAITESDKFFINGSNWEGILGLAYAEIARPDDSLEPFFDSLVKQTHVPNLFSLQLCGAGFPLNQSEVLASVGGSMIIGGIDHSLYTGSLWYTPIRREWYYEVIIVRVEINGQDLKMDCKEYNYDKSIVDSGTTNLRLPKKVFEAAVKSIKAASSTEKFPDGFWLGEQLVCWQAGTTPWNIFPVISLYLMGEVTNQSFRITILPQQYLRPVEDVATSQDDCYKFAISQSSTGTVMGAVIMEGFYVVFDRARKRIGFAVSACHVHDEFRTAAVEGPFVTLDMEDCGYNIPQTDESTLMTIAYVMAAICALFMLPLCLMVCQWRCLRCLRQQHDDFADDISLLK
Lab book: enter the figure in nM, no units written.

The examples below pair each entry with its known result.
> print(dat)
                                   compound  endpoint.unit  reported.measurement
1  CC(C)(C)c1cccc(CN[C@H]2CS(=O)(=O)C[C@@H](Cc3cc(F)c(N)c(-c4ccoc4)c3)[C@@H]2O)c1             nM                   150
2  Nc1c(F)cc(C[C@@H]2CS(=O)(=O)C[C@H](NCc3cccc(OC(F)(F)F)c3)[C@H]2O)cc1OC(C(F)(F)F)C(F)(F)F             nM                    44
3  CCCc1n[nH]c2ccc(C[C@@H]3CS(=O)(=O)C[C@H](NCc4cccc(C(C)(C)C)c4)[C@H]3O)cc12 (racemic)             nM                   220
4  CCOc1cc(C[C@@H]2CS(=O)(=O)C[C@H](NCc3cccc(C(C)(C)C)c3)[C@H]2O)cc(F)c1N             nM                    24

Attention now turns to another entry.
Input line: Requested read-out IC50, target or system Beta-secretase 1 (Homo sapiens), entry CC(C)(C)c1cccc(CN[C@H]2CS(=O)(=O)C[C@@H](Cc3ccc(N)nc3)[C@@H]2O)c1 (racemic)
Output line: 1620

* * *

test: Drug uptake in C57BL/6 mouse blood at 60 umol/kg, po dosed in HS15/propylenglycol/citrate buffer, pH 4.75, 50 mM (10/5/85, v/v/v) measured 1 hr post dosing by LC/MS/MS analysis; assay type: ADME, organism-based; settings: read-out: Drug uptake
PARAMETER: concentration at 1 h (nM)
Write the answer as a number in nM, unit excluded.

Input line: Bench note: what concentration at 1 h did "CC(C)(C)c1cccc(CN[C@H]2CS(=O)(=O)C[C@@H](Cc3cc(F)c(N)c(OC(C(F)(F)F)C(F)(F)F)c3)[C@@H]2O)c1" show?
Output line: 470

* * *

test: Drug uptake in C57BL/6 mouse blood at 6 umol/kg, po dosed in HS15/propylenglycol/citrate buffer, pH 4.75, 50 mM (10/5/85, v/v/v) measured 4 hrs post dosing by LC/MS/MS analysis; type: ADME, organism-based; settings: read-out: Drug uptake
PARAMETER: concentration at 4 h (nM)
Output spec: scalar in nM, unitless text.

Input line: Reported concentration at 4 h, compound "CC(C)(C)c1cccc(CN[C@H]2CS(=O)(=O)C[C@@H](Cc3cc(F)c(N)c(OC(C(F)(F)F)C(F)(F)F)c3)[C@@H]2O)c1" : ____
Output line: 30

* * *

target: Cathepsin D (Homo sapiens); test: Inhibition of human recombinant CatD using Mca-GKPILFFRLK(DNP)-dR-NH2 as substrate after 1 hr by fluorescence analysis
PARAMETER: pIC50
The value called pIC50 is obtained by taking minus log10 of the concentration in mol/L.

Consider the worked cases shown below.
> print(dat)
                                   molecule  reported.measurement
1  CC(F)(F)c1cccc(CN[C@H]2CS(=O)(=O)C[C@@H](Cc3cc(F)c(N)c(Br)c3)[C@@H]2O)c1                  5.38
2  CCc1c[nH]c2ccc(C[C@@H]3CS(=O)(=O)C[C@H](NCc4cccc(C(C)(C)C)c4)[C@H]3O)cc12 (racemic)                  5.61
3  CCOC[C@@H](Oc1cc(C[C@@H]2CS(=O)(=O)C[C@H](NCc3cccc(C(C)(C)C)c3)[C@H]2O)cc(F)c1N)C(F)(F)F                  6.64
4  CC(C)(C)c1cccc(CN[C@H]2CS(=O)(=O)C[C@@H](Cc3cc(O)c(N)c(F)c3)[C@@H]2O)c1                  6.27

Input line: Suppose we examine the molecule "CC1(C)OCc2ccc(CN[C@H]3CS(=O)(=O)C[C@@H](Cc4cc(F)c(N)c(OC(C(F)(F)F)C(F)(F)F)c4)[C@@H]3O)cc21" ; what pIC50 value has been reported?
Output line: 5.82

Input line: Return reported pIC50; argument: CC(C)(C)O[C@H]1C[C@@H]1CN[C@H]1CS(=O)(=O)C[C@@H](Cc2cc(F)c(N)c(OC(C(F)(F)F)C(F)(F)F)c2)[C@@H]1O (mixture of isomers)
Output line: 5.43

Input line: Which pIC50 is reported for this molecule? "CC(C)(C)c1cccc(CN[C@H]2CS(=O)(=O)C[C@@H](Cc3cc(F)c(N)c(OCC(F)(F)F)c3)[C@@H]2O)c1"
Output line: 6.16

Input line: Recorded pIC50 for "CC(C)Oc1cc(C[C@@H]2CS(=O)(=O)C[C@H](NCc3cccc(C(C)(C)C)c3)[C@H]2O)cc(F)c1N" , please?
Output line: 5.65

* * *

tested on: MDR1 (human); experiment: Efflux ratio of permeability from basolateral to apical over apical to basolateral side of MDCK cells expressing human MDR1 at 5 uM after 2 hrs by LC/MS analysis; format: ADME, cell-based, Canis lupus familiaris; settings: dog
efflux ratio at 2 h, 5 µM strictly under 20 means yes (1); at 20 or over means no (0).

Past entries and their recorded results:
> print(dat)
                                   compound  assay.system  category.label
1  CC(C)(O)c1cccc(CN[C@H]2CS(=O)(=O)C[C@@H](Cc3cc(F)c(N)c(OC(C(F)(F)F)C(F)(F)F)c3)[C@@H]2O)c1  MDR1 (human)          no (0)
2  Nc1c(F)cc(C[C@@H]2CS(=O)(=O)C[C@H](N)[C@H]2O)cc1OC(C(F)(F)F)C(F)(F)F  MDR1 (human)         yes (1)
3  CCCN1CCC[C@@]12CCN([C@@H](C)C(=O)N[C@@H](Cc1ccccc1)[C@H](O)CNCc1cccc(C(C)C)c1)C2=O  MDR1 (human)          no (0)
4  CC(C)(C)c1ccnc(CN[C@H]2CS(=O)(=O)C[C@@H](Cc3cc(F)c(N)c(OC(C(F)(F)F)C(F)(F)F)c3)[C@@H]2O)c1  MDR1 (human)         yes (1)
5  CC(C)(C)c1cccc(CN[C@H]2CS(=O)(=O)C[C@@H](Cc3ccc(N)c(OC(F)(F)F)c3)[C@@H]2O)c1 (racemic)  MDR1 (human)         yes (1)

Input line: I wonder whether "CC(F)(F)c1cccc(CN[C@H]2CS(=O)(=O)C[C@@H](Cc3cc(F)c(N)c(Br)c3)[C@@H]2O)c1" has efflux ratio at 2 h, 5 µM below 20. Can you tell?
Output line: yes (1)

* * *

experiment: AUC (0 to infinity) in C57BL/6 mouse at 30 umol/kg, po dosed in carboxymethyl cellulose 0.5% w/v in water/Tween 80 (99.5/0.5, v/v) by LC/MS/MS analysis; assay type: ADME, organism-based; parameters: dose 30 umol/kg, route oral, time infinity; conditions: in vivo
PARAMETER: AUC(0-inf) (µM·h)
A number alone suffices; assume µM·h.

Input line: Param item = "CC(C)(C)c1cccc(CN[C@H]2CS(=O)(=O)C[C@@H](Cc3ccc(N)c(Br)c3)[C@@H]2O)c1" ; retrieve measured AUC(0-inf).
Output line: 6.43

* * *

test: Ratio of drug uptake in brain to blood in C57BL/6 mouse at 60 umol/kg, po dosed in HS15/propylenglycol/citrate buffer, pH 4.75, 50 mM (10/5/85, v/v/v) measured 1 hr post dosing by LC/MS/MS analysis; type: ADME, organism-based
PARAMETER: Kp at 1 h
Could you keep your reply to the number by itself?

Input line: Entry "CC(C)(C)c1cccc(CN[C@H]2CS(=O)(=O)C[C@@H](Cc3cc(F)c(N)c(OC(C(F)(F)F)C(F)(F)F)c3)[C@@H]2O)c1" : reported Kp at 1 h = ?
Output line: 0.5

* * *

biological target: Cathepsin D (Homo sapiens, UniProt P07339); experiment: Inhibition of human recombinant CatD using Mca-GKPILFFRLK(DNP)-dR-NH2 as substrate after 1 hr by fluorescence analysis
Sequence (P07339 65-162 limits assumed): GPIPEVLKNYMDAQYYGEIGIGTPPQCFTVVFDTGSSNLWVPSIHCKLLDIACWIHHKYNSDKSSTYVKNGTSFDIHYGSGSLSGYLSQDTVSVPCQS
Sequence (P07339 169-412 limits assumed): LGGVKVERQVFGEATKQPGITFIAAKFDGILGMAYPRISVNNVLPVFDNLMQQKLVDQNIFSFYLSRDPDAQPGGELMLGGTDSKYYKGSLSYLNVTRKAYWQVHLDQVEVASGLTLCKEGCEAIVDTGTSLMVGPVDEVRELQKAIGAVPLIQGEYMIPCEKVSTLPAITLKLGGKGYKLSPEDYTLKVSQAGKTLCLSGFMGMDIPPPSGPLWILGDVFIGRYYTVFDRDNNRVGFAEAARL
// reported IC50 per item
Express it in µM; write the number only.

Please review the entries below; each comes with its answer.
> print(dat)
                                   compound  reported.measurement
1  CCCOc1cc(C[C@@H]2CS(=O)(=O)C[C@H](NCc3cccc(C(C)(C)C)c3)[C@H]2O)ccc1N                   5.2
2  CC(C)(C)c1cccc(CN[C@H]2CS(=O)(=O)C[C@@H](Cc3ccc(N)c(Br)c3)[C@@H]2O)c1                  0.72

Input line: Please look up its IC50: "CC(C)(C)c1cccc(CN[C@H]2CS(=O)(=O)C[C@@H](Cc3cc(F)c(N)c(OCCF)c3)[C@@H]2O)c1"
Output line: 2

Input line: Dear colleague, I am looking for the recorded IC50 of the following compound: "COCCOc1cc(C[C@@H]2CS(=O)(=O)C[C@H](NCc3cccc(C(C)(C)C)c3)[C@H]2O)cc(F)c1N"
Output line: 3.98

Input line: // IC50 lookup, key: CC(C)(C)c1cccc(CN[C@H]2CS(=O)(=O)C[C@@H](Cc3ccc4[nH]ncc4c3)[C@@H]2O)c1 (racemic)
Output line: 3.75

Input line: # input compound: "CC(C)(C)c1cccc(CN[C@H]2CS(=O)(=O)C[C@@H](Cc3cc(F)c(N)c(C4CC4)c3)[C@@H]2O)c1" ; wanted: its IC50
Output line: 1.74

Input line: Tell me the measured IC50 of "CC(C)(C)c1cccc(CN[C@H]2CS(=O)(=O)C[C@@H](Cc3cc(F)c(N)c(OC4COC4)c3)[C@@H]2O)c1" , please.
Output line: 1.15

Input line: Fill in: IC50 of CC(C)(C)c1cccc(CN[C@H]2CS(=O)(=O)C[C@@H](Cc3ccc4[nH]ccc4c3)[C@@H]2O)c1 (racemic) is ___
Output line: 5.53

Input line: // query IC50 value for entry "CCOC[C@H](Oc1cc(C[C@@H]2CS(=O)(=O)C[C@H](NCc3cccc(C(C)(C)C)c3)[C@H]2O)cc(F)c1N)C(F)(F)F"
Output line: 1.23

Input line: Which IC50 value belongs to CCCOc1cccc(C[C@@H]2CS(=O)(=O)C[C@H](NCc3cccc(C(C)(C)C)c3)[C@H]2O)c1 (relative stereo) ?
Output line: 0.29

Input line: Field request: IC50 | item: CCCc1n[nH]c2ccc(C[C@@H]3CS(=O)(=O)C[C@H](NCc4cccc(C(C)(C)C)c4)[C@H]3O)cc12 (racemic)
Output line: 1.63
